Target: T1, human NKp30-his protein (KACTUS; Cat: NKP-HM430) (human, UniProt O14931 19-135, limits assumed)
T1 construct: Bought protein (KACTUS NKP-HM430); not shown: His tag
T1 sequence (looked up): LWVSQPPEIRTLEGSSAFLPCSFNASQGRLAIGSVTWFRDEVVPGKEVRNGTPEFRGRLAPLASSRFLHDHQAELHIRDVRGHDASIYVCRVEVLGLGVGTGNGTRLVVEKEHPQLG
Assay: BLI (Octet Red96e), method of Example 6: antibody on AHC sensor, human NKp30-his in solution
pKd: −log10 of the molar value.
parameter.measured: pKd

Solved cases (3 shown):
antibody 23-hu45 (antibody, V domains shown) VH: EVQLVESGGGLVQPGGSLRLSCAASGSIFSPNGIGWYRQAPGKLRELVAGITGNGLTDYAESVKGRFTISRDNSKNTVYLQMNSLRAEDTAVYYCNLLLNHAEWGQGTLVTVSS
9.00
antibody 23-hu52 (antibody, V domains shown) VH: EVQLVESGGGLVQPGGSLRLSCAASGSIFSPQGIGWYRQAPGKGRELVSGITGNGLTDYAESVKGRFTISRDNSKNTVYLQMNSLRAEDTAVYYCALLLNHAEWGQGTLVTVSS
8.23
antibody 23-hu44 (antibody, V domains shown) VH: EVQLVESGGGLVQPGGSLRLSCAASGSIFSPNGIGWYRQAPGKGRELVSGITGNGLTDYAESVKGRFTISRDNSKNTVYLQMNSLRAEDTAVYYCALLLNHAEWGQGTLVTVSS
8.89

(P) antibody 23-hu48 (antibody, V domains shown) VH: EVQLVESGGGLVQPGGSLRLSCAASGSIFSPNAIGWYRQAPGKGRELVSGITGNGLTDYAESVKGRFTISRDNSKNTVYLQMNSLRAEDTAVYYCALLLNHAEWGQGTLVTVSS
(Q) antibody 23-p (antibody, V domains shown) VH: EVQLVESGGGLVQPGGSLRLSCAASGSIFSPNGIGWYRQAPGKLRELVAGITGNGLTDYAESVKGRFTISRDSAKNTVYLQMNSLKTEDTAVYYCNLLLNHAEWGQGTQVTVSS
Dear colleague, could you let me know whether P or Q has the lower recorded pKd? Thanks. Answer with the label corresponding to your selection.
P
